Provenance of the data: ChEMBL document CHEMBL3507680

experiment: Human HepG2 cell viability assay in 384 well format; assay type: toxicity, cell-based; set-up: dose 125 nL, time 70.5 hour; concentration not given beside the values; settings: HepG2 cells, read-out: Inhibition
Listing of entries alongside the reported cytotoxicity at 70.5 h.

compound: COCCN1CCN(CC(O)c2ccc(OC(F)(F)F)cc2)CC1 (stereo not drawn)
cytotoxicity at 70.5 h: -2.07%

compound: c1ccc(COC[C@H]2CC[C@H]3[C@H](CCN3Cc3cccs3)O2)nc1
cytotoxicity at 70.5 h: -3.77%

compound: CC(C)(C)c1noc(CN2CCCN(Cc3cccs3)CC2)n1
cytotoxicity at 70.5 h: -3.44%

* * *

Listing of entries alongside the reported cytotoxicity at 70.5 h.
test: Human HepG2 cell viability assay in 384 well format; type: toxicity, cell-based; design: dose 125 nL, time 70.5 hour; concentration not given beside the values; details: HepG2 cells, read-out: Inhibition

molecule: O=C(NCC1CCOC1)c1cc(-c2ccccc2Cl)[nH]n1 (stereo unspecified)
cytotoxicity at 70.5 h [%]: -12.9

molecule: Cc1ccsc1C(=O)N1CC(C(=O)N2CCCC2)C2(CCOCC2)C1 (stereo unspecified)
cytotoxicity at 70.5 h [%]: 0.96

molecule: Cn1c(=O)c2c(n3ncnc13)NC(=O)CC2c1ccc(F)cc1 (stereo unspecified)
cytotoxicity at 70.5 h [%]: -11.1

molecule: CC(=O)N1CCC[C@H]1C(=O)N(C)CCCOc1ccccc1
cytotoxicity at 70.5 h [%]: -2.16

molecule: CC(C(=O)N1CCN(Cc2ccc3c(c2)OCO3)CC1)n1ccnc1 (stereo unspecified)
cytotoxicity at 70.5 h [%]: 0.67

molecule: c1csc(CN2C[C@@H]3COC[C@]3(COCc3ccncc3)C2)c1
cytotoxicity at 70.5 h [%]: 28.4

molecule: CC(=O)N1CCC2(C1)c1ccccc1S(=O)(=O)N2CCC(C)C (stereo unspecified)
cytotoxicity at 70.5 h [%]: -11.2

molecule: Cn1cccc1C(=O)NCc1cn2c(n1)CN(C(=O)c1ccsc1)CC2
cytotoxicity at 70.5 h [%]: -8.13

molecule: CC(C)CN1C(=O)C2(CCN(Cc3nccs3)C2)c2ccccc21 (stereo unspecified)
cytotoxicity at 70.5 h [%]: -1.93

molecule: CCC(=O)N1CCOC(c2cc(Nc3nncs3)cc(C)n2)C1 (stereo unspecified)
cytotoxicity at 70.5 h [%]: -5.24

molecule: O=C(CN1CC(c2ccccc2)CC1=O)NCc1cc2n(n1)CCNC2 (stereo unspecified)
cytotoxicity at 70.5 h [%]: -8.02

molecule: COc1cc(N2CC[C@H](O)[C@@H]2Cc2cnn(C)c2)ncn1
cytotoxicity at 70.5 h [%]: -13.3

molecule: O=C(O)c1ccc(F)c(S(=O)(=O)Nc2ccc(-n3cccn3)c(Cl)c2)c1
cytotoxicity at 70.5 h [%]: -6.87

molecule: Cc1cc(C)cc(OCCC(=O)N2CCOCC2c2ncon2)c1 (stereo unspecified)
cytotoxicity at 70.5 h [%]: 5.7

molecule: Cc1n[nH]c(C)c1C1COCCN1C(=O)c1cc(Cl)c[nH]1 (stereo unspecified)
cytotoxicity at 70.5 h [%]: -5.39

molecule: CC(NC(=O)Nc1ccc(F)c(F)c1)c1nc[nH]n1 (stereo unspecified)
cytotoxicity at 70.5 h [%]: -2.38

molecule: COc1ccc(CC(=O)N2CC[C@@]3(O)CCNC[C@H]3C2)c(OC)c1
cytotoxicity at 70.5 h [%]: -7.58

molecule: CN(C)c1ncc(NC(=O)c2ccccc2C(F)(F)F)cn1
cytotoxicity at 70.5 h [%]: -4.64

molecule: Cc1cc(C)c(N(CC(O)CNCc2ccccc2)S(C)(=O)=O)c(C)c1 (stereo unspecified)
cytotoxicity at 70.5 h [%]: -6.51

molecule: O=C1OCCN1CCSc1nnnn1C1CCOCC1
cytotoxicity at 70.5 h [%]: -17.6

molecule: COc1ccc(OCC2CCCN(Cc3ccncc3)C2)cc1 (stereo unspecified)
cytotoxicity at 70.5 h [%]: -12.6

* * *

assay: Human HepG2 cell viability assay in 384 well format; assay type: toxicity, cell-based; design: dose 125 nL, time 70.5 hour; concentration not given beside the values; details: HepG2 cells, read-out: Inhibition
Listing of entries alongside the reported cytotoxicity at 70.5 h.

compound: CCO[C@H]1C[C@@H](O)C12CCN(C1CCN(c3ccccc3)CC1)CC2
cytotoxicity at 70.5 h [%]: -5.15

compound: CN(C)c1ncc(I)c(C2CCCCN2S(C)(=O)=O)n1 (configuration not stated)
cytotoxicity at 70.5 h [%]: -3.68

compound: O=C1CCSCC(C(=O)N2CCC(O)CC2)N1 (configuration not stated)
cytotoxicity at 70.5 h [%]: -10.8

compound: CC(C)(C)c1nnc2n1C(C(=O)N1CCN(c3ncccn3)CC1)CC2 (configuration not stated)
cytotoxicity at 70.5 h [%]: -11.2

compound: Cc1ccc(NC(=O)Nc2c(O)oc3ccccc3c2=O)cc1C
cytotoxicity at 70.5 h [%]: -5.07

compound: CCc1nnc(CN(CC)C(=O)C2CCC(=O)N(C3CCCC3)C2)o1 (configuration not stated)
cytotoxicity at 70.5 h [%]: -4.66

compound: Cc1nc(C2CN(C)CCO2)cc(N2CCC(C(N)=O)CC2)n1 (configuration not stated)
cytotoxicity at 70.5 h [%]: -10.6

compound: COc1cccc(C(=O)C2CCCN(c3nccc(N)n3)C2)c1 (configuration not stated)
cytotoxicity at 70.5 h [%]: -3.78

compound: Cc1ccccc1C(CNc1ncnc2c1CCNCC2)N(C)C (configuration not stated)
cytotoxicity at 70.5 h [%]: 5.24

compound: Nc1cc2c(nn1)CCN(C(=O)c1csc(-c3cccs3)n1)C2
cytotoxicity at 70.5 h [%]: -6.75

compound: CCSCCNC(=O)C(c1cccc(F)c1)N(C)C (configuration not stated)
cytotoxicity at 70.5 h [%]: -6.8

compound: CCS(=O)(=O)c1ccc2oc([C@H]3CCN(Cc4ccncc4)C3)nc2c1
cytotoxicity at 70.5 h [%]: 6.63

compound: CCCNC(=O)N1CCc2ccc(S(=O)(=O)N3CCN(C)CC3)cc2C1
cytotoxicity at 70.5 h [%]: -16.2

compound: CCc1nnc(CNCC2CCCN2c2cccnn2)o1 (configuration not stated)
cytotoxicity at 70.5 h [%]: -3.72

compound: O=C(c1ccc(-c2ccoc2)nc1)N1CCCN(C2CCCCC2)CC1
cytotoxicity at 70.5 h [%]: -12.9

compound: Cc1nc(C2CCNCC2)cc(N(C)Cc2cc3cc(F)ccc3[nH]2)n1
cytotoxicity at 70.5 h [%]: -1.29

compound: O=C(C1CCOCC1)N1CCO[C@H]2[C@@H](OCc3ccncc3)CC[C@@H]21
cytotoxicity at 70.5 h [%]: -4.02

* * *

test: Human HepG2 cell viability assay in 384 well format; type: toxicity, cell-based; set-up: dose 125 nL, time 70.5 hour; concentration not given beside the values; conditions: HepG2 cells, read-out: Inhibition
Listing of entries alongside the reported cytotoxicity at 70.5 h.
readout-label: cytotoxicity at 70.5 h (%)

compound: COCCN1C[C@@H]2[C@@H](OC)CCN(Cc3ccco3)[C@@H]2C1
numeric-result: -3.76
--
compound: O=C(c1cccc(O)c1)N1CCC2(CCN2c2ncccn2)C1 (stereo unspecified)
numeric-result: 2.82
--
compound: CNS(=O)(=O)c1cnccc1N1CCN(C(C)C)CC1
numeric-result: 2.6
--
compound: Cc1cc(CN2CCN(c3ccc4nncn4n3)C(C)C2)no1 (stereo unspecified)
numeric-result: 5.04
--
compound: CSc1ccc(-c2nc(CN3CCC(C(N)=O)CC3)c(C)o2)cc1
numeric-result: -6.77
--
compound: CCN(CC)C(=O)CSc1ccc(C(F)(F)F)cn1
numeric-result: -6.72
--
compound: CN1CC[C@]2(CN(S(C)(=O)=O)C[C@H]2c2ccccc2)C1=O
numeric-result: 3.8
--
compound: Cc1ccsc1CN1C[C@@H]2COC[C@]2(COCC(=O)N(C)C)C1
numeric-result: -0.655
--
compound: Cn1nc(N2CCCC(C(=O)Nc3nc4ccccc4[nH]3)C2)ccc1=O (stereo unspecified)
numeric-result: -10
--
compound: O=C(C1CCCN(c2nc3ccccc3cc2CO)C1)N1CCCC1 (stereo unspecified)
numeric-result: 20.7
--
compound: N#Cc1cccnc1NCCNC(=O)N1CCSCC1
numeric-result: 9.49
--
compound: CC(=O)CSc1nnc2n1N=CN(c1cccc(Cl)c1)C2
numeric-result: -8.9
--
compound: O=C(C1CSc2ccccc2O1)N1CCN(CCO)CC1 (stereo unspecified)
numeric-result: -14.3
--
compound: Cc1cc(C)n(C2CCCN(C(=O)Cc3csc(C)n3)C2)n1 (stereo unspecified)
numeric-result: 12.8
--
compound: Cc1cc(NC(=O)N2CCN(C)CC2C)n(CCC#N)n1 (stereo unspecified)
numeric-result: 18.4
--
compound: CCC(CO)NCc1ccc(-c2ccc(F)c(Cl)c2)o1 (stereo unspecified)
numeric-result: 3.9
--
compound: Cc1ncsc1CN1CC[C@H]2OCC[C@@]2(C(=O)NC(C)C)C1
numeric-result: 33.4
--
compound: CS(=O)(=O)N1CCCC(Cc2ccnc(Nc3ccccn3)c2)C1 (stereo unspecified)
numeric-result: -6.97
--
compound: CCn1cc(CNC2CCN(c3c(F)cccc3F)C2)cn1 (stereo unspecified)
numeric-result: -0.658
--
compound: Cc1nccn1-c1cc(CNS(=O)(=O)N2CCCC(C)C2)ccn1 (stereo unspecified)
numeric-result: 18
--
compound: Cc1nc(NC(=O)NC2CC(=O)N(C)C2)nn1C (stereo unspecified)
numeric-result: 7.5
--
compound: O=C(Nc1cccn(Cc2ccc(F)cc2)c1=O)c1cnc[nH]1
numeric-result: -3.1
--
compound: O=S(=O)(NC1=NCN(CCc2cccs2)CN1)c1ccccc1
numeric-result: -19.9
--
compound: CC(=O)N1CCCN(C(=O)NCc2ccc(-c3ccn[nH]3)cc2)CC1
numeric-result: -4.56
--
compound: CCCc1nc(C)c(CN2CC3(CCOC3)CCC2=O)s1 (stereo unspecified)
numeric-result: -8.32
--
compound: c1csc(CN2CCc3ncnc(C4CCOC4)c3CC2)c1 (stereo unspecified)
numeric-result: -8.76
--
compound: O=S(=O)(CCN1CCN(c2ccccc2O)CC1)c1ccc(Br)cc1
numeric-result: -8.18
--
compound: N#Cc1cc(F)ccc1CN1CCCCC1Cn1cccn1 (stereo unspecified)
numeric-result: -1.56
--
compound: Cc1nnc2ccc(C(=O)N3CCSC(C)(C)C3)cn12
numeric-result: 11.4
--
compound: O=S(=O)(c1cccs1)N1CCCn2nnc(CN3CCCCC3)c2C1
numeric-result: 0.152
--
compound: Cn1cc(CN2CCCC(CCc3ccc(F)cc3)C2)cn1 (stereo unspecified)
numeric-result: 8.18
--
compound: CN(C)C(=O)CN1CCC2(C1)CN(CC1CCOC1)C2 (stereo unspecified)
numeric-result: 11.8
--
compound: CC(C)(C)S(=O)(=O)CCNC(=O)c1cnc(-c2ccccc2)nc1
numeric-result: -0.525
--
compound: O=C(NC1CC1)C1CCN(c2snc3ccccc23)CC1
numeric-result: 15.8
--
compound: COc1cccc(N2CC3(CCN(c4ccc(C)nn4)C3)CC2=O)c1 (stereo unspecified)
numeric-result: -2.78
--
compound: Cc1cc(=O)n2nc(Oc3ccc(F)c(F)c3)sc2n1
numeric-result: 40.7
--
compound: O=C(c1ccnnc1)N1CCN2C[C@H](OCc3ccccn3)C[C@H]2C1
numeric-result: -4.04
--
compound: CC(C)COCCC(=O)NCCC(=O)N1CCN(c2ccccn2)CC1
numeric-result: -2.77
--
compound: c1cc(CC2CCCNC2)nc(NCCc2cnccn2)c1 (stereo unspecified)
numeric-result: -11.1
--
compound: COC(=O)[C@H](C)NC(=O)c1cnc(Cc2ccc(F)cc2)s1
numeric-result: -0.425
--
compound: Cc1ccc(Cl)cc1NC(=O)C1CSc2ncc(C)c(=O)n2C1 (stereo unspecified)
numeric-result: -13.9
